Test: Cytotoxicity against mouse Neuro2a cells after 48 hrs by MTT assay
Format: functional, cell-based
Conditions: N2a
Numbered stars: 1 amine (or outer) side, 2 acyl side, 3 side chain; on linkers, the order of the positions; unused ones are H or OH. Square brackets hold non-standard residues; d marks the D form. Peptide text beside a SMILES is read from it. X2 = CCC[C@@H](N[*:1])[C@H](C)C(=O)O[C@H](C(=O)[*:2])[C@@H](C)CC; X3 = CC[C@H](C)[C@H](OC(=O)[C@@H](C)[C@@H](CC)N[*:1])C(=O)[*:2]; X1 = C[C@H](N[*:1])C(=O)C(C)(C)C(=O)[*:2]; NMeF = CN[C@@H](Cc1ccccc1)C(=O)O; NMeL = CN[C@@H](CC(C)C)C(=O)O; NMeV = CN[C@H](C(=O)O)C(C)C; NMeA = CN[C@@H](C)C(=O)O
measurement_name: IC50

Lab book: IC50 of CC[C@H]1NC(=O)[C@@]2(C)CSC(=N2)[C@H](Cc2ccccc2)N(C)C(=O)[C@@H]2CCCN2C(=O)[C@H](C(C)C)N(C)C(=O)[C@H](Cc2ccccc2)OC(=O)[C@H](C)[C@@H](C)NC(=O)[C@@H]([C@@H](C)O)NC(=O)[C@@H](CC(C)C)N(C)C(=O)[C@@H]2CSC1=N2 [GRASSYPEPTOLIDE D] noted as 0.599 µM

For CCC[C@H]1NC(=O)[C@H](C)N(C)C(=O)C(C)(C)C(=O)[C@H](C)NC(=O)[C@H](Cc2ccccc2)N(C)C(=O)[C@H](C(C)C)N(C)C(=O)CNC(=O)[C@H](CC(C)C)N(C)C(=O)CNC(=O)[C@H]([C@@H](C)CC)OC(=O)[C@H]1C (cyclo(G[NMeL]G[NMeV][NMeF][X1][NMeA][X2])) the molecule record lists IC50 as > 10 µM

In plain terms, CC[C@H]1NC(=O)[C@@]2(C)CSC(=N2)[C@H](Cc2ccccc2)N(C)C(=O)[C@@H]2CCCN2C(=O)[C@H](C(C)C)N(C)C(=O)[C@H](Cc2ccccc2)OC(=O)[C@H](C)[C@@H](C)NC(=O)[C@H]([C@@H](C)O)NC(=O)[C@H](CC(C)C)N(C)C(=O)[C@@H]2CSC1=N2 [GRASSYPEPTOLIDE E] has a documented IC50 of 0.407 µM

The molecule identified as CC[C@H](C)[C@@H]1OC(=O)[C@@H](C)[C@@H](CC)NC(=O)[C@H](C)N(C)C(=O)C(C)(C)C(=O)[C@H](C)NC(=O)[C@H](Cc2ccccc2)N(C)C(=O)[C@H](C(C)C)N(C)C(=O)CNC(=O)[C@H](CC(C)C)N(C)C(=O)CNC1=O [DOLASTATIN 12] (cyclo(G[NMeL]G[NMeV][NMeF][X1][NMeA][X3])) registered its IC50 at > 1 µM
